- subject-of-test: T1, TRBP-ΔC (UniProt Q15633-2 9-215)
- T1 sequence: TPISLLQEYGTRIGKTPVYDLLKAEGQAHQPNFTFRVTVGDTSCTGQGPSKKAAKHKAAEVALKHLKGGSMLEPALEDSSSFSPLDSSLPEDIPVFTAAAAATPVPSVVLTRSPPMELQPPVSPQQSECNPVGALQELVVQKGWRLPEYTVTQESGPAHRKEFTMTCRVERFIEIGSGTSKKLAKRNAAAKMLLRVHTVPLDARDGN
- assay-name: EMSA; apparent Kd; nH 1.6; 50 mM sodium cacodylate pH 7.0, 50 mM potassium glutamate, 5% glycerol; EMSA 0.5 pM RNA, 30 min at room temperature, gel 0.25X TBE at 10 C; CD at 10 C with 5-15 uM RNA
- run-conditions: protein: recombinant; label: 5'-32P; hairpin with 1-nt U-bulge and A-A mismatch
observable: Kd (nM)
The figure you give is taken to be in nM; do not add the unit.

Qu. Fill in reported Kd for this entry: pre-mir-16-1 (structured_RNA) RNA: UAGCAGCACGUAAAUAUUGGCGUUAAGAUUCUAAAAUUAUCUCCAGUAUUAACUGUGCUGCUGAA
Ans. 610

Data origin, for the record: paper PMC4301919
